Provide the reported ΔTm at 10 µM of each item.
tgt: ZmDRIK1-K217-P492 (Zea mays, UniProt C0P4K9)
Construct: kinase domain, K217-P492
Sequence (C0P4K9 1-514): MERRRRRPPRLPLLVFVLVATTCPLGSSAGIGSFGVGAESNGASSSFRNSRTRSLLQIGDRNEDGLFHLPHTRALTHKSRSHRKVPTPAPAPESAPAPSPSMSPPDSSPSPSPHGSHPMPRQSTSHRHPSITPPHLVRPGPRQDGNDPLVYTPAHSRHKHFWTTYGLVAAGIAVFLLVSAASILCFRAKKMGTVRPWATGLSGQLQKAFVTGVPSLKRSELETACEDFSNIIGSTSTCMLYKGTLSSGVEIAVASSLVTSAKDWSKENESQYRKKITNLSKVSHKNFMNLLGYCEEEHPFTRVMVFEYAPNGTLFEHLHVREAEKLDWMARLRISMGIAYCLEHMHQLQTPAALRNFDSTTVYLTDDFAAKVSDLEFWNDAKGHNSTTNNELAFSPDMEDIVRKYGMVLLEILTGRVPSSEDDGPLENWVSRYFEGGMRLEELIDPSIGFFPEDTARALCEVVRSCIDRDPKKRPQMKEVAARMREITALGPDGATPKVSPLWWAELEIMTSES
protocol.summary: biochemical
condition: read-out: dTm B, sheet ZmDRIK1-K217-P492;; DSF, Boltzmann fit, 0.1% DMSO
A number alone suffices; assume °C.

Looking for the measured ΔTm at 10 µM of C=CC(=O)Nc1cccc(Oc2nc(Nc3ccc(N4CCN(C)CC4)cc3OC)ncc2Cl)c1 [WZ4002] , can you help?
-1.2

Looking for the measured ΔTm at 10 µM of CC[C@@H]1C(=O)N(C)c2cnc(Nc3ccc(C(=O)N[C@H]4CC[C@H](N5CCN(CC6CC6)CC5)CC4)cc3OC)nc2N1C(C)C [Volasertib (BI 6727)] , can you help?
-1.3

Looking for the measured ΔTm at 10 µM of CNC(=O)c1cc(Oc2ccc(NC(=O)Nc3cc(C(C)(C)C)nn3-c3ccc4ncccc4c3)c(F)c2)ccn1 [DCC-2036 (Rebastinib)] , can you help?
-1.25

Looking for the measured ΔTm at 10 µM of Nc1ncnc2c1c(-c1cccc(OCc3ccccc3)c1)cn2C1CC(CN2CCCC2)C1 (stereo in doubt) [NVP-ADW742] , can you help?
-0.671

Looking for the measured ΔTm at 10 µM of C#Cc1cccc(Nc2ncnc3cc4c(cc23)OCCOCCOCCO4)c1 [Icotinib] , can you help?
-1.1

Looking for the measured ΔTm at 10 µM of CN(C)Cc1cccc(N/C(=C2\C(=O)Nc3cc(C(N)=O)ccc32)c2ccccc2)c1 [BIX 02188] , can you help?
-0.147

Looking for the measured ΔTm at 10 µM of Nc1nc(N)c2nc(-c3cccc(O)c3)c(-c3cccc(O)c3)nc2n1 [TG100-115] , can you help?
-0.6
